Hi there, I'd appreciate the recorded TGI for every entry that follows.
tested on: MOLT-4 leukemia; experiment: NCI tumour cell line growth inhibition, 48 h

The examples below pair each entry with its known result.
CCCn1c2ccccc2c2ccc3c(c21)C(=O)C=CC3=O : 2.26 µM
COC(=O)C1=C(O)c2cc(OC)c(OC)cc2C(c2ccc(OC)c(OC)c2)C1 (stereo unspecified) : > 100 µM
CCCCCCCCCCCCCC1=NC(C)(C)CN1C(C)C : 3.26 µM
O=C(OC(CNc1cc(=O)n(Cc2ccccc2)c(=O)n1Cc1ccccc1)CN1CCCC1)c1ccccc1 (stereo unspecified) : > 100 µM
O=C1NC(=O)C(c2cnc3ccccn23)=C1c1cn2c3c(cc(F)cc13)CN(C(=O)N1CCCCC1)CC2 : > 81.4 µM
CN(C)c1nc2ccccc2[nH]1 : > 100 µM
COc1ccc(/C=C(/C(=O)N2CCN(c3ccccc3)CC2)c2cc(OC)c(OC)c(OC)c2)cc1O : > 100 µM
S=C1NC2(CCCCCC2)NN1c1ccccc1 : > 100 µM

For each listed entry, give its TGI.
1. O=C(NC(Cc1c[nH]c2ccccc12)C(=O)Nc1ccc(Br)cc1)OCc1ccccc1 (stereo unspecified)
2. C[N+](CCCl)(CCCl)Cc1cccc2cccc([N+](=O)[O-])c12
3. N#CC(=C1C=CC(=NO)C=C1)c1ccccc1

1: 38.9 µM; 2: > 100 µM; 3: 18.4 µM
